These data points were gathered from PubChem BioAssay AID1159580.

Assay: chemical genetic growth profiling, strain panel (AID 1159580);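 further: tested at 20 µM; growth read once vehicle control cultures reached saturation at 30 °C; 1 = growth at the plate median or of vehicle wells; lower values mean less growth of the strain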
Details: S. cerevisiae deletion strains, growth OD, locus YOR270C, strain vph1, hits give low values
Among all 5,500 compounds or so, about 2,000 (36%) were called active. Roughly 18% stayed inconclusive and do not appear here. The list shows a part of the results.

| compound | normalized growth |
| --- | --- |
| O=C(O)c1cc(=O)c2c(Cl)cc(Cl)cc2[nH]1 | 1.03 |
| CN1C(=O)CCS(=O)(=O)C1c1ccc(Cl)cc1 (stereo not drawn) | 0.992 |
| Cc1c(NC(=O)c2cccnc2)c(=O)n(-c2ccccc2)n1C | 1 |
| COc1c2c(cc3c1OCO3)C13C=C[C@H](OC)CC1N(C2)CC3O (stereo partly drawn) | 0.973 |
| O=C(NC1CCCCC1)NC1CCCCC1 | 0.905 |
| COc1cc(NS(=O)(=O)c2ccc(N)cc2)ncn1 | 0.95 |
| O=C(O)c1cc(=O)c2cccc(O)c2[nH]1 | 0.995 |
| NC[C@H]1O[C@H](O[C@H]2C(O[C@@H]3O[C@H](CO)[C@@H](O)[C@H]3O)[C@@H](O)[C@H](N)C[C@@H]2N)[C@H](N)[C@@H](O)[C@@H]1O (stereo partly drawn) | 1.01 |

---

Test: chemical genetic growth profiling, strain panel (AID 1159580);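 further: tested at 20 µM; growth read once vehicle control cultures reached saturation at 30 °C; 1 = growth at the plate median or of vehicle wells; lower values mean less growth of the strain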
Conditions: S. cerevisiae deletion strains, growth OD, locus YKL190W, strain CNB1
Hit rate of the full screen: of about 5,500 compounds, about 2,000 (36%) were called active. Roughly 18% stayed inconclusive and do not appear here. Cut-off read from the data, not from the text of the source: active = normalized growth mostly below about 0.91 (no sharp cut-off); inconclusive = no clear call, values can overlap the other calls; inactive = mostly above about 0.92. This is one part of the list.
Labels: class 1 for active, class 0 for inactive

| compound | group_label |
| --- | --- |
| CC1=CC(=O)C2=C(C)CC(O)C3C(C)C(=O)OC3C12 (centres undefined) | class 0 |
| CCN(CC)CCNC(=O)c1cc(Cl)c(N)cc1OC | class 0 |
| COc1cnc(NS(=O)(=O)c2ccc(N)cc2)nc1 | class 0 |
| NCCc1c[nH]c2ccccc12 | class 0 |
| CCOc1ccc(C(=O)c2cc(O)c(OC)c(OC)c2O)cc1 | class 0 |
| COc1ccc(C(=O)O)c(O)c1OC | class 0 |
| Cc1ccc(N=Cc2cccs2)cc1Cl | class 0 |
| NCC1OC(OC2C(CO)OC(OC3C(O)C(N)CC(N)C3OC3OC(CO)C(O)CC3N)C2O)C(N)C(O)C1OC1OC(CO)C(O)C(O)C1O (centres undefined) | class 0 |
| OCCN1CCN(CCCN2c3ccccc3Sc3ccc(C(F)(F)F)cc32)CC1 | class 0 |
| CN1CCN(CCC=C2c3ccccc3Sc3ccc(S(=O)(=O)N(C)C)cc32)CC1 | class 0 |
| COP(=O)(OC)OC(Br)C(Cl)(Cl)Br (centres undefined) | class 0 |
| COc1ccc2c(=O)ccoc2c1 | class 0 |
| O=C(OC[C@H]1O[C@H](OC(=O)c2cc(O)c(O)c(OC(=O)c3cc(O)c(O)c(O)c3)c2)[C@H](OC(=O)c2cc(O)c(O)c(OC(=O)c3cc(O)c(O)c(O)c3)c2)[C@@H](OC(=O)c2cc(O)c(O)c(OC(=O)c3cc(O)c(O)c(O)c3)c2)[C@@H]1OC(=O)c1cc(O)c(O)c(OC(=O)c2cc(O)c(O)c(O)c2)c1)c1cc(O)c(O)c(OC(=O)c2cc(O)c(O)c(O)c2)c1 | class 1 |
| CN(C(=O)Nc1ccccc1)n1cnc2ccccc2c1=O | class 0 |
| N#Cc1nccnc1Sc1ccc(Cl)cc1 | class 0 |
| O=[N+]([O-])c1ccc(-c2nn[nH]n2)cc1 | class 0 |
| COC(=O)c1scc(S(=O)(=O)C(C)C)c1N/N=C(/C#N)C(=O)c1ccccc1 | class 0 |
| CCOc1ccc(NC(C)=O)cc1 | class 0 |
| COc1cc(C=Nc2ccc(F)cc2)cc(OC)c1OC | class 0 |
